- target: T1, HCoV-HKU1 spike antigens (bead panel) (HCoV-HKU1, UniProt Q5MQD0 13-1300)
- T1 sequence: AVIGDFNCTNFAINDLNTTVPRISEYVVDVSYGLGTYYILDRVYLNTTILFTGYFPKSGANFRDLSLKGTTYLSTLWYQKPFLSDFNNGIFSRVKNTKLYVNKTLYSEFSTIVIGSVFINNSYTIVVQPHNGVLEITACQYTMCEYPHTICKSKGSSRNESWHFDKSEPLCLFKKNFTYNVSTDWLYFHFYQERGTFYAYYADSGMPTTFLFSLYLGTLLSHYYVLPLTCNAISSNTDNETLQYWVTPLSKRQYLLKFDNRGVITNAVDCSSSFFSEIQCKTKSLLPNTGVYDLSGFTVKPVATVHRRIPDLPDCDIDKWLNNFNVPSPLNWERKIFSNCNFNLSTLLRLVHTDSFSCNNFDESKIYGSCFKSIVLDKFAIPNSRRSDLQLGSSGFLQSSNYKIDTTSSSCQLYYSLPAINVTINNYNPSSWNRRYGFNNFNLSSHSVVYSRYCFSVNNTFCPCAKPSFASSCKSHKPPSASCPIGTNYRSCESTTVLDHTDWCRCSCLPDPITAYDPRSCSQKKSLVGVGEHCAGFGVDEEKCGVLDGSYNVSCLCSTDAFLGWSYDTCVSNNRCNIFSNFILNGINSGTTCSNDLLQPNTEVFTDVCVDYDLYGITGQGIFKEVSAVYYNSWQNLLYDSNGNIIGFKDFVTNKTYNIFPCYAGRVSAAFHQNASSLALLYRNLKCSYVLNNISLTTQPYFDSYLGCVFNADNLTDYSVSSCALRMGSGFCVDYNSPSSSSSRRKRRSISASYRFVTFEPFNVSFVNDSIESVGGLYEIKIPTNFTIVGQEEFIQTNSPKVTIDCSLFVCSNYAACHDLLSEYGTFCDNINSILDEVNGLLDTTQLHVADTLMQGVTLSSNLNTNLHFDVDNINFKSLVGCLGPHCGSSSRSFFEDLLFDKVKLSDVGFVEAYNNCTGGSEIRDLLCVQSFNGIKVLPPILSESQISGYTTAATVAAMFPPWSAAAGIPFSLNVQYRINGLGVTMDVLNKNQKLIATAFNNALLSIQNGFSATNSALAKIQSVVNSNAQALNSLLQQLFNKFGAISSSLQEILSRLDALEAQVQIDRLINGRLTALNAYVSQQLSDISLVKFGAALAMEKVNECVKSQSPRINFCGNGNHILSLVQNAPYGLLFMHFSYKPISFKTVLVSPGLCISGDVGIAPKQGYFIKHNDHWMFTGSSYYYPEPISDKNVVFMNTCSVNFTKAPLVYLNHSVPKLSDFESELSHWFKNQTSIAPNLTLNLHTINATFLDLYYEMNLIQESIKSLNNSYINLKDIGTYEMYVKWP
- protocol.text: multiplex bead assay

binder	binding result
COV_2004 (antibody, V domains shown, human IgG1) VH: QVQLVQSGAEVKKPGASVKVSCKASGYTFTGYYMHWVRQAPGQGLEWMGRINPSSGGTNYAQKFQGRVTMTRDTSISTAYMELSSLRSDDTAVYYCATDGDDGENWFDPWGQGTLVIVSS VL: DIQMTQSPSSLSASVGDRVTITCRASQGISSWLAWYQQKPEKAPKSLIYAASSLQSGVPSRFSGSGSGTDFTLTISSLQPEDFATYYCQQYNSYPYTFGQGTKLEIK	no binding
COV_1172 (antibody, V domains shown, human IgG1) VH: QVQLQESGPGLVKPSETLSLTCTVSGGSIRSYYWSWIRQPPGKGLEWIGYIYYSGSTNYSPSLKSRVTISVDTSKNQFSLKLNSVTAADTAVYYCARRGLGYCSGDSCSNAFDIWGQGTMVTVSS VL: DIQMTQSPSSLSASVGDRVTITCRASQSISSYLNWYQQKPGRAPELLIYDASSLQSGVPSGFSGSGSGTDFTLTISSLQPEDFATYYCQQSYSTPFTFGPGTKVDIKR	no binding
COV_1144 (antibody, V domains shown, human IgG1) VH: EVQLVESGGGLVQPGGSLRLSCAASGFTFRSFWMSWVRQAPGKGLEWVANIKEDASEKHYVDPVKGRFTISRDNAKNSLYLQLNSLRAEDMAVYYCARVGRGYCTNGLCYTAFEYWGQGTLVTVSS VL: DIQMTQSPSSLSASVGDRVTITCRTSQSISNYLNWYQQKPGKAPKLLIYAASSLQSGVPSRFSGSGSGTDFTLTISSLQPEDFATYYCQQSYSTAWTFGQGTKVEIRR	no binding
